For each entry below, report its Biacore human ROR1-Fz ka value.
target: T1, human ROR1-Fz (Homo sapiens, UniProt Q01973); test: Biacore off-rate and kinetic analysis, ROR1-Fz; type: binding; details: Table 11; SP34 light chain
T1 construct: Frizzled (Fz, residues 165-305); His6 (C); purchased Acro Biosystems; host or cells: HEK293
T1 sequence (Q01973 165-305): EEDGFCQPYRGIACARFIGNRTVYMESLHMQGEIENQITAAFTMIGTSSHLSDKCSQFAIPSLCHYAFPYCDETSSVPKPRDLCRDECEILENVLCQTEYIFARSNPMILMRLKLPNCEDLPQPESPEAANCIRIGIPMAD
Provide only the numeric value, understood in M⁻¹ s⁻¹.

Please fill in: Biacore human ROR1-Fz ka reported for SRP2196-B06 (antibody, V domains shown) VH: EVQLVESGGGLVQPGGSLRLSCAASGFNITGYYIHWVRQAPGKGLEWVGQISPNSGSTYSADSVKGRFTISADTSKNTAYLQMNSLRAEDTAVYYCARDSRRYVLSWDYWGQGTLVTVSS VL: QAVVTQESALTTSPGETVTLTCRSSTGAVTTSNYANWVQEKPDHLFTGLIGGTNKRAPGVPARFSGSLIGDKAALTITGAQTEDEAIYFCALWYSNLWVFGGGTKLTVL = 142000

Please fill in: Biacore human ROR1-Fz ka reported for SRP2196-B08 (antibody, V domains shown) VH: EVQLVESGGGLVQPGGSLRLSCAASGFNITGYYIHWVRQAPGKGLEWVGQISPNSGYTYLADSVKGRFTISADTSKNTAYLQMNSLRAEDTAVYYCARDSRRYVRGWDYWGQGTLVTVSS VL: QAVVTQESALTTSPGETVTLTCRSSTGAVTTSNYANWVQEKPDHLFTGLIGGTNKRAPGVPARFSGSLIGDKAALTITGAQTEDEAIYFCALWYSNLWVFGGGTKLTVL = 156000

Please fill in: Biacore human ROR1-Fz ka reported for SRP2196-A09 (antibody, V domains shown) VH: EVQLVESGGGLVQPGGSLRLSCAASGFNITGYYIHWVRQAPGKGLEWVGQISPNSGATHYADSVKGRFTISADTSKNTAYLQMNSLRAEDTAVYYCARDSRRYIRSWDYWGQGTLVTVSS VL: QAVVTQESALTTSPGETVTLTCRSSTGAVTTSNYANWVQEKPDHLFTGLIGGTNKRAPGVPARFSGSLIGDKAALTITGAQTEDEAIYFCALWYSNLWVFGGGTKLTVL = 150000

Please fill in: Biacore human ROR1-Fz ka reported for SRP2196-B02 (antibody, V domains shown) VH: EVQLVESGGGLVQPGGSLRLSCAASGFNITQYYIHWVRQAPGKGLEWVGYISPNSGQTYDADSVKGRFTISADTSKNTAYLQMNSLRAEDTAVYYCARDSRRYVRSWDYWGQGTLVTVSS VL: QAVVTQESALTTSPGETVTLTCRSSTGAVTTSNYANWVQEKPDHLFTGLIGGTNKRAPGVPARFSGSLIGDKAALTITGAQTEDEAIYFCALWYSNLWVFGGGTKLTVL = 163000

Please fill in: Biacore human ROR1-Fz ka reported for SRP2196-A06 (antibody, V domains shown) VH: EVQLVESGGGLVQPGGSLRLSCAASGFNITGYYIHWVRQAPGKGLEWVGQISPNSGSTHQADSVKGRFTISADTSKNTAYLQMNSLRAGDTAVYYCARDSRRYVRGWDYWGQGTLVTVSS VL: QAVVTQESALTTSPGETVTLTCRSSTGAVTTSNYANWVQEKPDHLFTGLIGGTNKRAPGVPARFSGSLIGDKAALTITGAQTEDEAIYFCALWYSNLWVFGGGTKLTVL = 180000
